test system: CEM cells HIV-1 protection, formazan growth assay; test: NCI AIDS Antiviral Assay
pEC50: −log10 of the molar value.
endpoint: pEC50

{"compound": "OC1CSCCCSCCSCCCSC1", "pEC50": "< 4.76"}

## Task For the compound CCC1SC(C)C(=O)NC1=O (configuration not stated) , give its measured pEC50 value.
## Result < 3.18

## Task For the compound Oc1cc(-c2ccc(Cl)cc2)cn2c1nc1ccccc12 , give its measured pEC50 value.
## Result < 3.70

## Task For the compound O=C(CSc1nnc(-c2ccc(N=Cc3ccc(Cl)cc3)cc2)o1)Nc1ccc([N+](=O)[O-])cc1 , give its measured pEC50 value.
## Result < 4.42

## Task For the compound C1CSCC2(COC2)CS1 , give its measured pEC50 value.
## Result < 2.85

###

tested on: CEM cells HIV-1 protection, formazan growth assay; assay: NCI AIDS Antiviral Assay; conditions: measured here: growth of uninfected CEM cells
endpoint: IC50

{"molecule": "OCCN(/N=C\\c1ccc2ccccc2c1)C1=NCCN1", "endpoint": "IC50", "measurement": "31.6 µM"}
{"molecule": "CCC1OC2CS(=O)(=O)CC2O1 (centres undefined)", "endpoint": "IC50", "measurement": "> 1290 µM"}
{"molecule": "COc1ccc2[nH]c(C)cc2c1CN", "endpoint": "IC50", "measurement": "120 µM"}
{"molecule": "[O-][n+]1ccccc1CCN(O)Cc1ccccc1", "endpoint": "IC50", "measurement": "> 200 µM"}
{"molecule": "CO/N=C(\\C(=O)Nc1cncs1)c1csc(N)n1", "endpoint": "IC50", "measurement": "> 200 µM"}

## Task For the molecule C[N+]1([O-])C2CCC1CC(OC(=O)C(CO)c1ccccc1)C2 (centres undefined) , give its measured IC50 value.
## Result > 200 µM

## Task For the molecule CCOC(=O)NC(Nc1ccc(C(=O)O)cc1)(C(F)(F)F)C(F)(F)F , give its measured IC50 value.
## Result > 200 µM

## Task For the molecule CC1(C)CNC[C@](C)(OCCCO[C@@]2(C)CNCC(C)(C)NC2=O)C(=O)N1 , give its measured IC50 value.
## Result > 200 µM

## Task For the molecule CCOC(=O)C(C(=O)OCC)=S1c2ccccc2Sc2ccccc21 , give its measured IC50 value.
## Result > 200 µM

## Task For the molecule CC(=O)OCC1OC(n2c(C)c(N=Nc3ccccc3)c(C)c(C#N)c2=S)C(OC(C)=O)C(OC(C)=O)C1OC(C)=O (centres undefined) , give its measured IC50 value.
## Result > 200 µM

###

test system: CEM cells HIV-1 protection, formazan growth assay; assay: NCI AIDS Antiviral Assay
The source made the active and inactive calls.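 The calls were made as follows: active = compounds giving half or more protection of infected cells from virus-caused growth loss, again on retest; inactive = the rest.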
endpoint: outcome

{"molecule": "O=C1C(Cl)=C(Cl)C(=O)N1c1c(F)c(F)c(F)c(F)c1F", "measurement": "inactive"}
{"molecule": "C(=NCCN=Cc1cccc2ccccc12)c1cccc2ccccc12", "measurement": "inactive"}
{"molecule": "O=C(Oc1ccc(N=Cc2ccc3c(c2)OCO3)cc1)Oc1ccc(N=Cc2ccc3c(c2)OCO3)cc1", "measurement": "inactive"}
{"molecule": "CC(CNC(=O)c1ccccc1)(CNC(=O)c1ccccc1)[N+](=O)[O-]", "measurement": "inactive"}
{"molecule": "N=C(N)c1ccc2oc3ccc(C(=N)N)cc3c(=O)c2c1", "measurement": "inactive"}

## Task Report outcome under test system CEM cells HIV-1 protection, formazan growth assay for CCOC(=O)C1N(S(=O)(=O)c2ccc(C)cc2)CCC12c1ccccc1NC2c1ccc(OC)c(OC)c1 (stereo not given) .
## Result inactive

## Task Report outcome under test system CEM cells HIV-1 protection, formazan growth assay for NC(=O)c1c(-c2ccccc2)c(-c2ccccc2)cc2c(=O)c3ccccc3[nH]c12 .
## Result inactive

## Task Report outcome under test system CEM cells HIV-1 protection, formazan growth assay for O=C(CCC(=O)Nc1cccc(Cl)c1)CC(=O)c1ccc(Cl)cc1 .
## Result inactive

## Task Report outcome under test system CEM cells HIV-1 protection, formazan growth assay for CC12CP(=O)(c3ccccc3)CC1C2(Cl)Cl (stereo not given) .
## Result inactive

## Task Report outcome under test system CEM cells HIV-1 protection, formazan growth assay for O=c1oc2c(ccc3nc(-c4ccccc4)sc32)c(N2CCOCC2)c1Cl .
## Result inactive

## Task Report outcome under test system CEM cells HIV-1 protection, formazan growth assay for O=C(O)COc1ccc(O)c2c1C(=O)CCCC2=O .
## Result inactive

## Task Report outcome under test system CEM cells HIV-1 protection, formazan growth assay for CCCCCCCCSC1OC(CO)C(O)C(O)C1O (stereo not given) .
## Result inactive

## Task Report outcome under test system CEM cells HIV-1 protection, formazan growth assay for CC(=O)[O-].CC(=O)[O-].[Mn+2].c1ccc(/C(=N\Nc2ccccn2)c2ccccn2)cc1 .
## Result inactive

## Task Report outcome under test system CEM cells HIV-1 protection, formazan growth assay for COc1ccc2c(C(=O)O)cc3ccccc3c2c1OC .
## Result inactive

## Task Report outcome under test system CEM cells HIV-1 protection, formazan growth assay for C=C1[C@H]2C(=O)[C@H]3[C@@H]4N(C)C5CC3([C@@H]1OC(C)=O)[C@@H](C2OC(C)=O)C41[C@H](OC(C)=O)C(OC(=O)c2ccccc2)C[C@@](C)(C=O)[C@@H]51 (stereo not given in full) .
## Result inactive

## Task Report outcome under test system CEM cells HIV-1 protection, formazan growth assay for NS(=O)(=O)c1ccc(NC(=O)c2cccc3c(=O)c4ccccc4[nH]c23)cc1 .
## Result inactive

## Task Report outcome under test system CEM cells HIV-1 protection, formazan growth assay for CCC1(CC)CC(=NNS(=O)(=O)c2ccc(C)cc2)C1 .
## Result inactive
